So I've got a bunch of molecules here, and I need their relative viability values.
tested on: 621-103 (TSC2-rescued); test: relative viability vs DMSO; higher = less cytotoxic; conditions: 0.1 µM; serum: 10% FBS; 72 h
Where a name gives a salt, the structure may show the parent alone.
Reply numerically in %, unit not repeated.

What measured relative viability goes with CN(C/C=C/C#CC(C)(C)C)Cc1cccc2ccccc12 [Terbinafine HCl] ? 101

What measured relative viability goes with "O=C1c2c(O)ccc(O)c2C(=O)c2c(NCCNCCO)ccc(NCCNCCO)c21" ? 37

What measured relative viability goes with "O=c1cc(-c2ccc(O)cc2)oc2cc(O)cc(O)c12" ? 115

What measured relative viability goes with CCOC(=O)[C@H](CCc1ccccc1)N[C@H]1CCc2ccccc2N(CC(=O)O)C1=O [Benazepril HCl] ? 98.8

What measured relative viability goes with "c1ccc2c(CCNc3ccc(Nc4ccncc4)cc3)c[nH]c2c1" ? 106

What measured relative viability goes with Cc1c(CN2CCN(C(=O)[C@H](C)O)CC2)sc2c(N3CCOCC3)nc(-c3cnc(N)nc3)nc12 [GDC-0980 (RC7422)] ? 75.5

What measured relative viability goes with "CC(C)[C@H](O)C(=O)N[C@@H](C)C(=O)N[C@@H]1C(=O)N(C)CCc2ccccc21" ? 102

What measured relative viability goes with "Cc1cccc(-c2nn3c(c2-c2ccnc4ccc(C(N)=O)cc24)CCC3)n1" ? 97.7

What measured relative viability goes with "CC(C)(C)c1cnc(CSc2cnc(NC(=O)C3CCNCC3)s2)o1" ? 49.5

###

tested on: 621-103 (TSC2-rescued); test: relative viability vs DMSO; higher = less cytotoxic; details: 0.001 µM; serum: 10% FBS; 72 h
Where a name gives a salt, the structure may show the parent alone.
ENDPOINT_NAME: relative viability (%)
Reply numerically in %, unit not repeated.

Provide value of relative viability for this record tested with 621-103 (TSC2-rescued): "O=C(NC[C@H]1CN(c2ccc(N3CCOCC3=O)cc2)C(=O)O1)c1ccc(Cl)s1" 116

Provide value of relative viability for this record tested with 621-103 (TSC2-rescued): "OCCn1cc(-c2cnc3nnn(Cc4ccc5ncccc5c4)c3n2)cn1" 102

Provide value of relative viability for this record tested with 621-103 (TSC2-rescued): "Cn1cc(C2=C(c3ccc(Cl)cc3Cl)C(=O)NC2=O)c2ccccc21" 84.2

Provide value of relative viability for this record tested with 621-103 (TSC2-rescued): COc1ccc(C(CN(C)C)C2(O)CCCCC2)cc1 (centres undefined) [Venlafaxine HCl] 110

Provide value of relative viability for this record tested with 621-103 (TSC2-rescued): "Cc1nc(-c2ccc(OCC(C)C)c(C#N)c2)sc1C(=O)O" 101

Provide value of relative viability for this record tested with 621-103 (TSC2-rescued): "O=c1cc(-c2cccc3c2Sc2ccccc2S3)oc(N2CCOCC2)c1" 90.2

Provide value of relative viability for this record tested with 621-103 (TSC2-rescued): "Cn1cc(CNCC2CCN(c3ncc(C(=O)NO)cn3)CC2)c2ccccc21" 78.5

Provide value of relative viability for this record tested with 621-103 (TSC2-rescued): "Cn1cc(C2=C(c3cn(C4CCN(Cc5ccccn5)CC4)c4ccccc34)C(=O)NC2=O)c2ccccc21" 99.6

Provide value of relative viability for this record tested with 621-103 (TSC2-rescued): "CCCc1nc(C)c2c(=O)nc(-c3cc(S(=O)(=O)N4CCN(CC)CC4)ccc3OCC)[nH]n12" 103

Provide value of relative viability for this record tested with 621-103 (TSC2-rescued): "CCCS(=O)(=O)Nc1ccc(F)c(C(=O)c2c[nH]c3ncc(Cl)cc23)c1F" 101

Provide value of relative viability for this record tested with 621-103 (TSC2-rescued): Nc1nc(F)nc2c1ncn2[C@@H]1O[C@H](COP(=O)(O)O)[C@@H](O)[C@@H]1O [Fludarabine Phosphate] 104

Provide value of relative viability for this record tested with 621-103 (TSC2-rescued): "CCOc1cc2ncc(C#N)c(Nc3ccc(OCc4ccccn4)c(Cl)c3)c2cc1NC(=O)/C=C/CN(C)C" 99.1

Provide value of relative viability for this record tested with 621-103 (TSC2-rescued): COc1nc(C)cnc1NS(=O)(=O)c1cccnc1-c1ccc(-c2nnco2)cc1 [Zibotentan (ZD4054)] 99.8

Provide value of relative viability for this record tested with 621-103 (TSC2-rescued): N[C@@H](CC(=O)N1CCn2c(nnc2C(F)(F)F)C1)Cc1cc(F)c(F)cc1F [Sitagliptin phosphate] 97.6

Provide value of relative viability for this record tested with 621-103 (TSC2-rescued): "Cn1cc(-c2ccc3nnc(C(F)(F)c4ccc5ncccc5c4)n3n2)cn1" 101

Provide value of relative viability for this record tested with 621-103 (TSC2-rescued): "Nc1nc(N)c2nc(-c3cccc(O)c3)c(-c3cccc(O)c3)nc2n1" 99.8

Provide value of relative viability for this record tested with 621-103 (TSC2-rescued): "C[C@@H]1CCO[C@H]2Cn3cc(C(=O)NCc4ccc(F)cc4F)c(=O)c(O)c3C(=O)N12" 109

Provide value of relative viability for this record tested with 621-103 (TSC2-rescued): CC(C)NCC(O)c1ccc(O)c(O)c1 (centres undefined) [Isoprenaline HCl] 88

Provide value of relative viability for this record tested with 621-103 (TSC2-rescued): "Cc1[nH]c(=O)c(C#N)cc1-c1ccncc1" 91.1

Provide value of relative viability for this record tested with 621-103 (TSC2-rescued): CCOC(=O)C1=C(COCCN)NC(C)=C(C(=O)OC)C1c1ccccc1Cl (centres undefined) [Amlodipine besylate] 91.1

Provide value of relative viability for this record tested with 621-103 (TSC2-rescued): "CCCCCCOC(=O)NC(=N)c1ccc(NCc2nc3cc(C(=O)N(CCC(=O)OCC)c4ccccn4)ccc3n2C)cc1" 80.5

Provide value of relative viability for this record tested with 621-103 (TSC2-rescued): "Cc1ccc(CN2CCNCC2)cc1NC(=O)CNc1ccc(F)c(F)c1" 98.9

Provide value of relative viability for this record tested with 621-103 (TSC2-rescued): "C[C@H](NC(=O)Cc1cc(F)cc(F)c1)C(=O)N[C@H](C(=O)OC(C)(C)C)c1ccccc1" 105

Provide value of relative viability for this record tested with 621-103 (TSC2-rescued): Nc1nc2[nH]cc(CCc3ccc(C(=O)N[C@@H](CCC(=O)O)C(=O)O)cc3)c2c(=O)[nH]1 [Pemetrexed disodium] 92.3

Provide value of relative viability for this record tested with 621-103 (TSC2-rescued): "CC1(C)CC(=O)c2c(C(F)(F)F)nn(-c3ccc(C(N)=O)c(N[C@H]4CC[C@H](O)CC4)c3)c2C1" 111

Provide value of relative viability for this record tested with 621-103 (TSC2-rescued): "COCC(=O)NC/C=C/c1ccc2ncnc(Nc3ccc(Oc4ccc(C)nc4)c(C)c3)c2c1" 102

Provide value of relative viability for this record tested with 621-103 (TSC2-rescued): "Cc1cnc(Nc2ccc(N3CCN(C)CC3)cc2)nc1Nc1cccc(S(=O)(=O)NC(C)(C)C)c1" 98.7

Provide value of relative viability for this record tested with 621-103 (TSC2-rescued): CN(C)CCCN1c2ccccc2Sc2ccc(Cl)cc21 [Chlorpromazine HCl] 92.6

Provide value of relative viability for this record tested with 621-103 (TSC2-rescued): "C/C(=C\C(=O)Nc1ccccc1C(=O)O)c1ccc2ccccc2c1" 98.3

Provide value of relative viability for this record tested with 621-103 (TSC2-rescued): "CN1CCC(CNc2ccc3ncc(-c4cccc(OC(F)(F)F)c4)n3n2)CC1" 101

Provide value of relative viability for this record tested with 621-103 (TSC2-rescued): Nc1ccn([C@@H]2O[C@H](CO)[C@@H](O)C2(F)F)c(=O)n1 [Gemcitabine Hydrochloride] 95.2

Provide value of relative viability for this record tested with 621-103 (TSC2-rescued): "Cc1nc(Nc2ncc(C(=O)Nc3c(C)cccc3Cl)s2)cc(N2CCN(CCO)CC2)n1" 79

Provide value of relative viability for this record tested with 621-103 (TSC2-rescued): CN(C)C(=O)C(CCN1CCC(O)(c2ccc(Cl)cc2)CC1)(c1ccccc1)c1ccccc1 [Loperamide HCl] 84.8

Provide value of relative viability for this record tested with 621-103 (TSC2-rescued): NCCCC(O)(P(=O)(O)O)P(=O)(O)O [Alendronate Sodium] 102

###

system: 621-103 (TSC2-rescued); assay: relative viability vs DMSO; higher = less cytotoxic; conditions: 0.0001 µM; serum: 10% FBS; 72 h;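 also: immortalized renal angiomyolipoma cells stably carrying empty vector or TSC2, dosed in 384-well plates in DMEM, viability normalized to vehicle-treated wells within each plate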
So I've got a bunch of compounds here, and I need their relative viability values.
Reply numerically in %, unit not repeated.

What measured relative viability goes with CC(=O)O[C@H]1C[C@@H]2CC[C@@H]3[C@H](CC[C@@]4(C)[C@H]3C[C@H]([N+]3(C)CCCCC3)[C@@H]4OC(C)=O)[C@@]2(C)C[C@@H]1[N+]1(C)CCCCC1 [Pancuronium bromide] ? 97.7

What measured relative viability goes with "CC(C)(C)OC(=O)N[C@H]1CCCCC/C=C\[C@@H]2C[C@@]2(C(=O)NS(=O)(=O)C2CC2)NC(=O)[C@@H]2C[C@@H](OC(=O)N3Cc4cccc(F)c4C3)CN2C1=O" ? 100

What measured relative viability goes with "C=CC(=O)N1CCC[C@@H](n2nc(-c3ccc(Oc4ccccc4)cc3)c3c(N)ncnc32)C1" ? 99.6
